assay: Dissociation constant, pKa of the compound; assay type: physicochemical
reported endpoint: pKa
Quick one: just the number, no unit, thanks!

Take a look at these entries with their results.
O=C(O)/C=C/c1cccc(C(F)(F)F)c1
4.6
COc1ccc(/C=C/C(=O)O)cc1OC
4.55
O=C(O)COc1ccccc1
3.2

Next, consider the following compound.
Write down pKa measured for item "O=C(O)c1cc2ccccc2oc1=O"
3.6

* * *

assay: Inhibition of Gloeobacter violaceus ligand-gated ion channel R77A mutant
reported endpoint: IC50 (µM)
Provide only the numeric value, understood in µM.

Write down IC50 measured for item O=C(O)/C=C/c1ccc(O)c(O)c1 [CAFFEIC ACID]
945
